In this section, each of the sequences is paired with its reported plasma membrane surface immunostaining intensity.
# Test system: HEK293T
# MEASUREMENT_NOTES: plasma membrane surface immunostaining intensity (anti-HA, deep receptor scanning) (arbitrary fluorescence units); higher = higher plasma membrane expression
# PROTOCOL_CONDITIONS: GPCR class: Taste
Answer using only a numeral; do not append any unit.

{"RESIDUE_SEQUENCE": "MLSAGLGLLMLVAVVEFLIGLIGNGSLVVWSFREWIRKFNWSSYNLIILGLAGCRFLLQWLIILDLSLFPLFQSSRWLRYLSIFWVLVSQASLWFATFLSVFYCKKITTFDRPAYLWLKQRAYNLSLWCLLGYFIINLLLTVQIGLTFYHPPQGNSSIRYPFESWQYLYAFQLNSGSYLPLVVFLVSSGMLIVSLYTHHKKMKVHSAGRRDVRAKAHITALKSLGCFLLLHLVYIMASPFSITSKTYPPDLTSVFIWETLMAAYPSLHSLILIMGIPRVKQTCQKILWKTVCARRCWGP [TAS2R5]", "NUMBER": 123}
{"RESIDUE_SEQUENCE": "MNGDHMVLGSSVTDKKAIILVTILLLLRLVAIAGNGFITAALGVEWVLRRMLLPCDKLLVSLGASRFCLQSVVMGKTIYVFLHPMAFPYNPVLQFLAFQWDFLNAATLWSSTWLSVFYCVKIATFTHPVFFWLKHKLSGWLPWMLFSSVGLSSFTTILFFIGNHRMYQNYLRNHLQPWNVTGDSIRSYCEKFYLFPLKMITWTMPTAVFFICMILLITSLGRHRKKALLTTSGFREPSVQAHIKALLALLSFAMLFISYFLSLVFSAAGIFPPLDFKFWVWESVIYLCAAVHPIILLFSNCRLRAVLKSRRSSRCGTP [TAS2R60]", "NUMBER": 137}
{"RESIDUE_SEQUENCE": "MATELDKIFLILAIAEFIISMLGNVFIGLVNCSEGIKNQKVFSADFILTCLAISTIGQLLVILFDSFLVGLASHLYTTYRLGKTVIMLWHMTNHLTTWLATCLSIFYFFKIAHFPHSLFLWLRWRMNGMIVMLLILSLFLLIFDSLVLEIFIDISLNIIDKSNLTLYLDESKTLYDKLSILKTLLSLTSFIPFSLFLTSLLFLFLSLVRHTRNLKLSSLGSRDSSTEAHRRAMKMVMSFLFLFIVHFFSLQVANWIFFMLWNNKCIKFVMLALNAFPSCHSFILILGNSKLQQTAVRLLWHLRNYTKTPNPLPL [TAS2R42]", "NUMBER": 114}

// switching to the query sequence
Request: I have this sequence here, MLRLFYFSAIIASVILNFVGIIMNLFITVVNCKTWVKSHRISSSDRILFSLGITRFLMLGLFLVNTIYFVSSNTERSVYLSAFFVLCFMFLDSSSVWFVTLLNILYCVKITNFQHSVFLLLKRNISPKIPRLLLACVLISAFTTCLYITLSQASPFPELVTTRNNTSFNISEGILSLVVSLVLSSSLQFIINVTSASLLIHSLRRHIQKMQKNATGFWNPQTEAHVGAMKLMVYFLILYIPYSVATLVQYLPFYAGMDMGTKSICLIFATLYSPGHSVLIIITHPKLKTTAKKILCFKK [TAS2R4] , and I need its recorded plasma membrane surface immunostaining intensity.
Result: 139

###

# Tested on: HEK293T
# MEASUREMENT_NOTES: plasma membrane surface immunostaining intensity (anti-HA, deep receptor scanning) (arbitrary fluorescence units); higher = higher plasma membrane expression
# PROTOCOL_CONDITIONS: GPCR class: A (Olfactory)
ASSAY_ENDPOINT: plasma membrane surface immunostaining intensity
Answer using only a numeral; do not append any unit.

Request: I have this sequence here, MTILLNSSLQRATFFLTGFQGLEGLHGWISIPFCFIYLTVILGNLTILHVICTDATLHGPMYYFLGMLAVTDLGLCLSTLPTVLGIFWFDTREIGIPACFTQLFFIHTLSSMESSVLLSMSIDRYVAVCNPLHDSTVLTPACIVKMGLSSVLRSALLILPLPFLLKRFQYCHSHVLAHAYCLHLEIMKLACSSIIVNHIYGLFVVACTVGVDSLLIFLSYALILRTVLSIASHQERLRALNTCVSHICAVLLFYIPMIGLSLVHRFGEHLPRVVHLFMSYVYLLVPPLMNPIIYSIKTKQIRQRIIKKFQFIKSLRCFWKD [OR51G1] , and I need its recorded plasma membrane surface immunostaining intensity.
Result: 116

###

# Tested on: HEK293T
# MEASUREMENT_NOTES: plasma membrane surface immunostaining intensity (anti-HA, deep receptor scanning) (arbitrary fluorescence units); higher = higher plasma membrane expression
# PROTOCOL_CONDITIONS: GPCR class: A (Olfactory)
ASSAY_ENDPOINT: plasma membrane surface immunostaining intensity
Answer using only a numeral; do not append any unit.

{"RESIDUE_SEQUENCE": "MLRNGSIVTEFILVGFQQSSTSTRALLFALFLALYSLTMAMNGLIIFITSWTDPKLNSPMYFFLGHLSLLDVCFITTTIPQMLIHLVVRDHIVSFVCCMTQMYFVFCVGVAECILLAFMAYDRYVAICYPLNYVPIISQKVCVRLVGTAWFFGLINGIFLEYISFREPFRRDNHIESFFCEAPIVIGLSCGDPQFSLWAIFADAIVVILSPMVLTVTSYVHILATILSKASSSGRGKTFSTCASHLTVVIFLYTSAMFSYMNPHSTHGPDKDKPFSLLYTIITPMCNPIIYSFRNKEIKEAMVRALGRTRLAQPQSV [OR10AD1]", "ASSAYED_SYSTEM": "HEK293T", "NUMBER": 326}
{"RESIDUE_SEQUENCE": "MANITRMANHTGRLDFILMGLFRQSKHPALLSVVIFVVFLKALSGNAVLILLIHCDAHLHSPMYFFISQLSLMDMAYISVTVPKMLLDQVMGVNKVSAPECGMQMFLYLTLAGSEFFLLATMAYDRYVAICHPLRYPVLMNHRVCLFLASGCWFLGSVDGFMLTPITMSFPFCRSWEIHHFFCEVPAVTILSCSDTSLYETLMYLCCVLMLLIPVTIISSSYLLILLTVHRMNSAEGRKKAFATCSSHLTVVILFYGAAVYTYMLPSSYHTPEKDMMVSVFYTILTPVLNPLIYSLRNKDVMGALKKMLTVRFVL [OR2T29]", "ASSAYED_SYSTEM": "HEK293T", "NUMBER": 131}
{"RESIDUE_SEQUENCE": "MEETNNSSEKGFLLLGFSDQPQLERFLFAIILYFYVLSLLGNTALILVCCLDSRLHTPMYFFLSNLSCVDICFTTSVAPQLLVTMNKKDKTMSYGGCVAQLYVAMGLGSSECILLAVMAYDRYAAVCRPLRYIAIMHPRFCASLAGGAWLSGLITSLIQCSLTVQLPLCGHRTLDHIFCEVPVLIKLACVDTTFNEAELFVASVVFLIVPVLLILVSYGFITQAVLRIKSAAGRQKAFGTCSSHLVVVIIFYGTIIFMYLQPANRRSKNQGKFVSLFYTIVTPLLNPIIYTLRNKDVKGALRTLILGSAAGQSHKD [OR2G6]", "ASSAYED_SYSTEM": "HEK293T", "NUMBER": 122}
{"RESIDUE_SEQUENCE": "MQPESGANGTVIAEFILLGLLEAPGLQPVVFVLFLFAYLVTVRGNLSILAAVLVEPKLHTPMYFFLGNLSVLDVGCISVTVPSMLSRLLSRKRAVPCGACLTQLFFFHLFVGVDCFLLTAMAYDRFLAICRPLTYSTRMSQTVQRMLVAASWACAFTNALTHTVAMSTLNFCGPNVINHFYCDLPQLFQLSCSSTQLNELLLFAVGFIMAGTPMALIVISYIHVAAAVLRIRSVEGRKKAFSTCGSHLTVVAIFYGSGIFNYMRLGSTKLSDKDKAVGIFNTVINPMLNPIIYSFRNPDVQSAIWRMLTGRRSLA [OR3A1]", "ASSAYED_SYSTEM": "HEK293T", "NUMBER": 125}
{"RESIDUE_SEQUENCE": "MAVGRNNTIVTKFILLGLSDHPQMKIFLFMLFLGLYLLTLAWNLSLIALIKMDSHLHMPMYFFLSNLSFLDICYVSSTAPKMLSDIITEQKTISFVGCATQYFVFCGMGLTECFLLAAMAYDRYAAICNPLLYTVLISHTLCLKMVVGAYVGGFLSSFIETYSVYQHDFCGPYMINHFFCDLPPVLALSCSDTFTSEVVTFIVSVVVGIVSVLVVLISYGYIVAAVVKISSATGRTKAFSTCASHLTAVTLFYGSGFFMYMRPSSSYSLNRDKVVSIFYALVIPVVNPIIYSFRNKEIKNAMRKAMERDPGISHGGPFIFMTLG [OR5A2]", "ASSAYED_SYSTEM": "HEK293T", "NUMBER": 267}

// switching to the query sequence
Request: I have this sequence here, MGSFNTSFEDGFILVGFSDWPQLEPILFVFIFIFYSLTLFGNTIIIALSWLDLRLHTPMYFFLSHLSLLDLCFTTSTVPQLLINLCGVDRTITRGGCVAQLFIYLALGSTECVLLVVMAFDRYAAVCRPLHYMAIMHPHLCQTLAIASWGAGFVNSLIQTGLAMAMPLCGHRLNHFFCEMPVFLKLACADTEGTEAKMFVARVIVVAVPAALILGSYVHIAHAVLRVKSTAGRRKAFGTCGSHLLVVFLFYGSAIYTYLQSIHNYSEREGKFVALFYTIITPILNPLIYTLRNKDVKGALWKVLWRGRDSG [OR2Y1] , and I need its recorded plasma membrane surface immunostaining intensity.
Result: 132
